pIC50: −log10 of the molar value.
Let's look at some pIC50 data for High affinity nerve growth factor receptor (Homo sapiens, UniProt P04629) that I collected from the literature.

Known results for molecules:
molecule=CCOc1nn(-c2ccccc2)c(NC(=O)N[C@@H]2CN(c3cn[nH]c3)C[C@H]2c2cc(F)cc(F)c2)c1C measurement_type=pIC50 result="> 7.00"
molecule=COCCN1C[C@@H](NC(=O)Nc2c3c(nn2-c2ccccc2)COC3)[C@H](c2ccccc2)C1 measurement_type=pIC50 result="> 7.00"
molecule=CNC(=O)c1ccc(-c2cc(O[C@@H](C)C(F)(F)F)c3c(N)n[nH]c3c2)cc1N1CCN(C2CCCCC2)CC1 measurement_type=pIC50 result=6.63

// returns pIC50 for CC(=O)c1ccc(-c2cc(OC3CCOCC3)c3c(N)n[nH]c3c2)cc1N1CCN(CCC(C)(C)C)CC1 with High affinity nerve growth factor receptor (Homo sapiens, UniProt P04629); value = 7.44

// returns pIC50 for COCCN1C[C@@H](NC(=O)Nc2cc(-c3ccc(F)cc3)nn2C)[C@H](c2cccc(F)c2)C1 with High affinity nerve growth factor receptor (Homo sapiens, UniProt P04629); value = > 7.00

// returns pIC50 for O=C(c1ccc(Nc2ccc(C3CC3)nc2)nc1F)c1c[nH]c2ncnc(NCC(F)(F)F)c12 with High affinity nerve growth factor receptor (Homo sapiens, UniProt P04629); value = > 7.00

// returns pIC50 for COc1ccn(-c2ccc(F)cc2)c(=O)c1C(=O)Nc1ccc(Oc2ccnc3ccc4c(c23)OCCO4)cc1F with High affinity nerve growth factor receptor (Homo sapiens, UniProt P04629); value = > 7.30

// returns pIC50 for COCCN1C[C@@H](NC(=O)Nc2c(C)c(OCc3ncn(C)n3)nn2-c2ccccc2)[C@H](c2ccc(F)c(F)c2)C1 with High affinity nerve growth factor receptor (Homo sapiens, UniProt P04629); value = > 7.00

// returns pIC50 for CCOc1nc(CCO)ccc1NC(=O)c1coc2c1C(=O)NC(C)(C)C2 with High affinity nerve growth factor receptor (Homo sapiens, UniProt P04629); value = 7.61

// returns pIC50 for CCNc1ncnc2[nH]cc(C(=O)c3ccc(Nc4ccc(CC)nc4)nc3F)c12 with High affinity nerve growth factor receptor (Homo sapiens, UniProt P04629); value = > 8.00

###

Let's look at some pIC50 data for High affinity nerve growth factor receptor (Homo sapiens, UniProt P04629) that I collected from the literature.
pIC50: −log10 of the molar value.
measurement_type: pIC50

Known results for compounds:
compound=O=C(Nc1n[nH]c2ncc(-c3cnn(C4CCNCC4)c3)cc12)c1ccc(F)cc1 target_or_system="High affinity nerve growth factor receptor (Homo sapiens, UniProt P04629)" measurement_type=pIC50 quantitative_result=6.36
compound="COc1ccc(COc2ccc(Cn3cnc4cc(C5=CC6(O)CCCN5C6)ccc43)cc2OC)cn1 (stereo not shown)" target_or_system="High affinity nerve growth factor receptor (Homo sapiens, UniProt P04629)" measurement_type=pIC50 quantitative_result=5.94

P = CNC(=O)c1ccc(-c2cc(OC3CCOCC3)c3c(N)n[nH]c3c2)cc1N1CCN(CC(C)(F)F)CC1
Q = CNC(=O)c1ccc(-c2cc(OC3CCOCC3)c3c(C)n[nH]c3c2)cc1N1CCN(c2ncc(F)cn2)CC1
input: Compare the recorded pIC50 of P and Q ; state which is larger. I would appreciate it if you answered with the label of your choice.
output: P
(P: 7.66, Q: 5.98)
